Listed next: entries and their corresponding gcPBM binding intensity (ln).
System: PfAP2-HC AP2 domain (GST-tagged)
Assay Method Text: gcPBM binding intensity (ln(normalized median fluorescence intensity)); higher = stronger DNA binding
In all, about 25,000 sequences were measured (“ln(normalized median fluorescence intensity)”: median about 9.7, highest 2% from about 11 on). Shown is part of a subset that was picked to be rich in the highest values.
Property Label: gcPBM binding intensity (ln)

1. ATAATTCATGTTTAGTGTACAAAAAATTAAAGCAAC [XGTACX_site8891] ... 9.87
2. TATATATATATATATTGTACTATATAGTATCTTTTT [XGTACX_site1646] ... 9.78
3. AATATTAAAAACAAAACACACAAAAAAAAATAAACT [CACACA_site6470] ... 10.2
4. ACATATATATATATATATATATATATATATAGATAG [CACACA_negctrl_site783] ... 9.92
5. TTAAACAATTTAGACATACACACAAAAATAATATTA [CACACA_site385] ... 9.87

----------
Tested on: PfAP2-HC AP2 domain (GST-tagged)
Assay Method Text: gcPBM binding intensity (ln(normalized median fluorescence intensity)); higher = stronger DNA binding
Over roughly 25,000 sequences, “ln(normalized median fluorescence intensity)” has its median near 9.7; the highest 2% begin near 11. This is one part of a sample in which the highest values are shown more often than they occur.
Each entry below carries its reported gcPBM binding intensity (ln).
Property Label: gcPBM binding intensity (ln)

1) TTTCCAAATTGTTGACGGACACTCACGAATAGTTAT [XGTACX_site5720] ... 9.63
2) ATATTGACAGGAAAAATTTTCTTTGAATCTTTAAAA [CACACA_negctrl_site1191] ... 9.29
3) CATACATACGGACACACACACATATATATATATATA [CACACA_site5598] ... 10.4
4) TTTCCCTTGTTGTAAACATGCACAATATTTAGGTAT [TGCATGCA_site49] ... 9.75
5) TCATTTCACAGACACACACACACAATATATTTCCTT [CACACA_site9295] ... 10.8
6) TTGAGAAAAATTAATGGTACACATATTATAAGTATA [XGTACX_site6539] ... 9.7
7) AAGATTTGAAAAAATACACACAATAAAAAAATAAAA [CACACA_site3281] ... 10.1
8) CTAAAATACGAACACACACACACATATAAATAAATA [CACACA_site7872] ... 11.2

----------
Recorded gcPBM binding intensity (ln), one value per entry.
Test system: PfAP2-HC AP2 domain (GST-tagged)
Assay Method Text: gcPBM binding intensity (ln(normalized median fluorescence intensity)); higher = stronger DNA binding
Over roughly 25,000 sequences, “ln(normalized median fluorescence intensity)” has its median near 9.7; the highest 2% begin near 11. Shown is part of a subset that was picked to be rich in the highest values.
Property Label: gcPBM binding intensity (ln)

1. ATATATAATATTTATTGTACTATTTTATTTTTATAA [XGTACX_site705] ... 9.62
2. TATAGATGTATGTACATACACACATATATAAATAAA [CACACA_site1789] ... 10
3. ATATTTATGTAATGTTTGATTTTTTTTTTATGTGTG [CACACA_negctrl_site1422] ... 9.88
4. AACGATTTACATCACTGTACTAATGATATACCTCAT [XGTACX_site7463] ... 9.85
5. GACATAGTCATATACTGTACTTTATATTATTGTGTA [XGTACX_site6636] ... 9.66
6. TTAATACCCAGACACACACACACAAAATAAAATACA [CACACA_site7968] ... 11
7. AAAAAAAACGAACACACACACATACAAAATCTATAT [CACACA_site6795] ... 11.1
8. TATGGAATAAATTTATCCATACATCTTATAACATAT [XGTACX_negctrl_site500] ... 9.63
9. TTTATTTATTAATACACACACACACGCCCACAAAAT [CACACA_site6253] ... 10.5
10. AATATAATGCAATATACACACATATATTTCTCTTTT [CACACA_site7276] ... 9.94
11. AGCAACCCCCTAGCTACACACATATAGATATAAATA [CACACA_site6577] ... 10.6
12. TCAAAAATAAAGATCACACATATATATATATATATA [CACACA_site4381] ... 9.73
13. ATCTTGAAGATTATTTGTACACAAAAGTTAAAATAT [XGTACX_site242] ... 9.47
14. ACTCATAAAAATAGATGTACTTTAATAATTTGATTT [XGTACX_site8763] ... 9.48
15. AAATCATGTTGAAGGGGTACAAAATATGTAATGTTG [XGTACX_site6222] ... 9.82
16. CTAATCGTGCACAACTGTACATTTGTCAAGGGCAAT [XGTACX_site8662] ... 9.62
17. TAATATATAACGTGCACACACACATTTACGTATGAA [CACACA_site1832] ... 10
18. CATACATACAAACACACACACATATAAATACATACA [CACACA_site4625] ... 11.2
19. TCCTTATTTATATAATGTACTTTTTTTTTTCATTTT [XGTACX_site4275] ... 9.64
20. AAAAAAAAAGATCACACACACATAAATATAAACAAA [CACACA_site5285] ... 10.9
21. ATATATAACGTGCACACACACATTTACGTATGAATA [CACACA_site6948] ... 10
22. TATTCCCCCCAACACACACACACACCGACATACCAC [CACACA_site8723] ... 11.5
23. TACAATCTAAAATACACACACACAAACATATATTTA [CACACA_site3702] ... 10.7
24. ATATGTACATATCTCATGCACTTAACAAAAAAAAAG [GTGCAC_site9898] ... 9.56
25. TTAATACCCGGACACACACACACAAAATAAAATACA [CACACA_site4296] ... 10.6
26. ATATACAAAGGATTAACACACATATTATTATAGATA [CACACA_site6966] ... 9.87
27. TTAAAAATAAAAAATACACACTCTAGTCCATGTAAC [CACACA_site3640] ... 10.1
28. ACGATGAATATGTAAAGTACGCAAATGTAACAATAT [XGTACX_site728] ... 9.91
29. TTTTTATTTATTAATACACACACACCCACCCACAAA [CACACA_site7965] ... 10.4
30. TTTCACATATATATGGTGCATATTTTATGTGTAAAT [GTGCAC_site9937] ... 9.7

----------
System: PfAP2-HC AP2 domain (GST-tagged)
Assay Method Text: gcPBM binding intensity (ln(normalized median fluorescence intensity)); higher = stronger DNA binding
In all, about 25,000 sequences were measured (“ln(normalized median fluorescence intensity)”: median about 9.7, highest 2% from about 11 on). Many of the other results were omitted from the sample, so the highest values are more common in it than they were.
# Lookup of reported gcPBM binding intensity (ln) keyed by entry
Property Label: gcPBM binding intensity (ln)

1. AAGAAAAAAAAAATTACACACTGCGGACATACACAA [CACACA_site4838] ... 9.98
2. TAATAATAAAAATAAACACACATATATCTGTATTTA [CACACA_site5572] ... 9.74
3. ATAATAAAAAAAAATGCACACATATATATATATATA [CACACA_site8766] ... 9.8
4. TATAATTTAACGACATGTACATATAAAAAAATATTT [XGTACX_site2395] ... 9.75
5. ATAATGTAAAATAAATGTACGCAATATATAAAAAAT [XGTACX_site5747] ... 10.1

----------
Tested on: PfAP2-HC AP2 domain (GST-tagged)
Assay Method Text: gcPBM binding intensity (ln(normalized median fluorescence intensity)); higher = stronger DNA binding
Over roughly 25,000 sequences, “ln(normalized median fluorescence intensity)” has its median near 9.7; the highest 2% begin near 11. The list comes from a sample in which the highest values are over-represented; it also holds close analogues and randomly drawn sequences.
Property Label: gcPBM binding intensity (ln)

1) TACAAAAGCTATAACATTCACCACATTATAAAAATA [CACACA_negctrl_site1112] ... 9.78
2) ATATAGTAAAATTATACACACATGAATTTTCCCATA [CACACA_site3113] ... 9.81
3) TTTCATTTTTTTACATGTACGCAAAAGTGTGTAGTT [XGTACX_site6582] ... 9.78
4) TATATATATATACCAACACACATACATATATATATA [CACACA_site8530] ... 9.99
5) CATACACAGAAACACACACACATATATATATATATA [CACACA_site4519] ... 10.2
6) ATTTTTTCTTTTCGATGTACCCTTCTTATTCTTTAT [XGTACX_site3782] ... 10.1
7) CATTATAAGAAACACACACACATATATATATATATA [CACACA_site1051] ... 10.1
